Provenance of the data: paper PMC6445240

STUDY_TARGET: CA-II (Homo sapiens, UniProt P00918)
MEASUREMENT_LABEL: Ki (nM)

INSERT INTO results (structure_notation, measurement_label, assay_result) VALUES
  ('C[N+](C)(Cc1ccc(F)cc1)Cc1ccc(C(=O)NCc2cccc(S(N)(=O)=O)c2)cc1', 'Ki', 720);

###

STUDY_TARGET: UniProt P22748
Sequence (P22748 19-312): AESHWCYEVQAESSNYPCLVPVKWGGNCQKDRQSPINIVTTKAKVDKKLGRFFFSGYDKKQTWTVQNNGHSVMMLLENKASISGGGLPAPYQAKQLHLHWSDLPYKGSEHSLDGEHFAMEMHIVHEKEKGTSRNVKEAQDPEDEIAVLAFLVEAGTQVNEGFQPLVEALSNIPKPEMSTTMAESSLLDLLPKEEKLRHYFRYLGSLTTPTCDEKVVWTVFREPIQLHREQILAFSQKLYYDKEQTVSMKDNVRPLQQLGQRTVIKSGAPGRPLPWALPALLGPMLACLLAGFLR
MEASUREMENT_LABEL: Ki (µM)

INSERT INTO assay_data (structure_notation, qualifier, assay_result) VALUES
  ('C[N+](C)(Cc1ccc(F)cc1)Cc1ccc(C(=O)NCc2ccc(S(N)(=O)=O)cc2)cc1', '=', 3.63),
  ('C[N+](C)(Cc1ccc(F)cc1)Cc1ccc(C(=O)NCc2cccc(S(N)(=O)=O)c2)cc1', '>', 50);
